Could you please report measured inhibition for the items listed next?
- Protocol Description: Inhibition of DNA polymerase
- Parameters: concentration or dose not given beside the values
- Condition Parameters: concentration not given here
Numbers only, in %.

Worked examples, 6 compounds total:
Nc1nc(O)c2ncn(C/C=C\CO)c2n1 :: 8
Nc1ncnc2c1ncn2C[C@H]1C[C@@H]1CO :: 0
Nc1nc(O)c2ncn(C[C@H]3C[C@@H]3CO)c2n1 :: 30
Nc1nc(O)c2ncn(C/C=C/CO)c2n1 :: 0
Cc1cn(C[C@H]2C[C@H]2CO)c(=O)[nH]c1=O :: 0
Nc1ncnc2c1ncn2C[C@H]1C[C@H]1CO :: 0

Please go through the list and note inhibition for each compound.
1. Nc1nc2c(ncn2COCCO)c(=O)[nH]1
2. Nc1nc(O)c(N=O)c(NC[C@H]2C[C@@H]2CO)n1
3. Nc1nc(O)c2nnn(C[C@H]3C[C@H]3CO)c2n1
4. Nc1nc(O)c2ncn(C[C@H]3CC3(CO)CO)c2n1
5. Nc1nc(O)c2ncn(C[C@H]3C[C@H]3CO)c2n1
6. Nc1ncnc2c1ncn2C/C=C\CO
7. Nc1nc(O)c2ncn(CC=C(CO)CO)c2n1

1: 40; 2: 5; 3: 1; 4: 0; 5: 14; 6: 3; 7: 0

* * *

- Experimental Target: DNA polymerase catalytic subunit (Herpes simplex virus (type 1 / strain 17)) (UniProt P04293)
- Sequence (whole entry): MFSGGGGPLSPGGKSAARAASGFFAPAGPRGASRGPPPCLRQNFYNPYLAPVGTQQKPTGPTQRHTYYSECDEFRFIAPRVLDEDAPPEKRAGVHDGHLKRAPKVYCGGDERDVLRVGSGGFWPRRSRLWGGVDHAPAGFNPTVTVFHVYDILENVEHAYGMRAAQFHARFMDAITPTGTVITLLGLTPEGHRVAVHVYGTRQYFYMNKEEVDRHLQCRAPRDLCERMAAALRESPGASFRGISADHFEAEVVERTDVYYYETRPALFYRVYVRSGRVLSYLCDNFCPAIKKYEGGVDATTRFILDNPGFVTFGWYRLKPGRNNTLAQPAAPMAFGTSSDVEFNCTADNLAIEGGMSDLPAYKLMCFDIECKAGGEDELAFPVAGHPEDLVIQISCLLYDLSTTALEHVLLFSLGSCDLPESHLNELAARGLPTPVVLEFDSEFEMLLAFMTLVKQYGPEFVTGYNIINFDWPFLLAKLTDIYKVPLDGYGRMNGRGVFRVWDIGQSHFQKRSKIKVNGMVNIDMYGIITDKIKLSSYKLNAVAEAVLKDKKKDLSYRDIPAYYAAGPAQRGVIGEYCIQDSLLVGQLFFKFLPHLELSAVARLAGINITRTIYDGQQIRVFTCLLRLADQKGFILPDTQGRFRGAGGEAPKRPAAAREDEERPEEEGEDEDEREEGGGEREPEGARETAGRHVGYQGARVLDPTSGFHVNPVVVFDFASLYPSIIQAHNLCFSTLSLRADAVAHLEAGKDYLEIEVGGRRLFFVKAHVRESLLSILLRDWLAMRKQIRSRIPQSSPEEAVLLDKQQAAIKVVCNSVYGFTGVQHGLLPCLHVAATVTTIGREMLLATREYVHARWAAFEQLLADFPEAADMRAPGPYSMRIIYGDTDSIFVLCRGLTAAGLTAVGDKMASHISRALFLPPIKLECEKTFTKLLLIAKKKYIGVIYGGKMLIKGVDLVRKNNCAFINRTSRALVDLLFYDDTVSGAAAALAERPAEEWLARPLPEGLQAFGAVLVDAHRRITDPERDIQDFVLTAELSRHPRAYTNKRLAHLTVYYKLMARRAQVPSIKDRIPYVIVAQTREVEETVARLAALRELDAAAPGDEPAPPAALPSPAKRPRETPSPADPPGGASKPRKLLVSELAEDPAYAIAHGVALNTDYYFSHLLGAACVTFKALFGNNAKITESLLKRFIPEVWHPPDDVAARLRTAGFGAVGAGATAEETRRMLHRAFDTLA
- Protocol Description: Inhibition of DNA polymerase
- Parameters: concentration or dose not given beside the values
- Condition Parameters: concentration not given here
Measured Property: inhibition (%)
Give bare numbers, in %.

Example entries begin here.
Nc1nc(O)c2nnn(C[C@H]3C[C@H]3CO)c2n1 :: 0
Nc1nc(O)c2ncn(C[C@H]3C[C@H]3CO)c2n1 :: 3
Nc1nc(O)c2ncn(CCC(CO)CO)c2n1 :: 0
Nc1ncnc2c1ncn2C[C@H]1C[C@H]1CO :: 5
Nc1nc(O)c(N=O)c(NC[C@H]2C[C@H]2CO)n1 :: 8

For every item in the list below, what is its measured inhibition?
1. Nc1nc(O)c2ncn(CC=C(CO)CO)c2n1
2. Nc1nc2c(ncn2COC(CO)CO)c(=O)[nH]1
3. Nc1nc(O)c2ncn(C[C@H]3C[C@@H]3CO)c2n1
4. Nc1nc2c(ncn2CCCCO)c(=O)[nH]1

1. 0
2. 60
3. 26
4. 20

Below is a list of molecules. For each, state its recorded inhibition.
1. Nc1ncnc2c1ncn2C/C=C\CO
2. Nc1nc(O)c2ccn(C[C@H]3C[C@H]3CO)c2n1
3. Nc1nc(O)c2ncn(C/C=C/CO)c2n1

1: 0; 2: 14; 3: 0

# return inhibition for each item in the list
1. Nc1nc(O)c2ncn(C[C@H]3CC3(CO)CO)c2n1
2. Nc1nc(O)c(N=O)c(NC[C@H]2C[C@@H]2CO)n1
3. Nc1nc(O)c2ncn(C/C=C\CO)c2n1
4. Nc1nc(O)c2ncn(CC#CCO)c2n1
5. Nc1ncnc2c1ncn2CC1CC1(CO)CO (stereo not given)

1. 0
2. 9
3. 12
4. 0
5. 0

# map each molecule to its inhibition
1. Cc1cn(C[C@H]2C[C@H]2CO)c(=O)[nH]c1=O
2. Nc1ncnc2c1ncn2C[C@H]1C[C@@H]1CO
3. Nc1nc2c(ncn2COCCO)c(=O)[nH]1

22
0
79
